- TEST: inhibitors of CD40-induced NF-kB signaling, primary screen, BL2 cells, luciferase reporter, single point (AID 1053188);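 note: 0% = neutral control wells and 100% = IKK inhibitor VII at 50 µM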
- CONDITION_SET: CD40L-induced, 4 h; at 10 µM unless noted
The campaign covered roughly 83,000 compounds. About 780 (0.94%) were called active.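 Rule for the calls: active = mean inhibition of at least 50% with a set share of replicates also reaching that level; inconclusive = no clear call, values can overlap the other calls; inactive = the rest.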 Only a selection was taken, and actives are over-represented in it overall.
One label from this list, please: active, inactive

Some entries whose results are on file:
{"MOLECULE": "Cc1ccc(S(=O)(=O)NCCC(=O)NCc2ccc(Cl)cc2)cc1C", "CLASS_ASSIGNMENT": "inactive"}
{"MOLECULE": "O=C(CCC(=O)c1cccs1)NC1CCCCCC1", "CLASS_ASSIGNMENT": "inactive"}
{"MOLECULE": "C[C@H]1CN([C@@H](C)CO)C(=O)CCCn2cc(nn2)CO[C@H]1CN(C)C(=O)Nc1cccc(C(F)(F)F)c1", "CLASS_ASSIGNMENT": "inactive"}
{"MOLECULE": "Fc1ccc(-c2ccc(NCCN3CCOCC3)nn2)cc1", "CLASS_ASSIGNMENT": "inactive"}
{"MOLECULE": "O=C(NCCCN1CCCC1=O)c1ccc(S(=O)(=O)Nc2ccccc2)cc1", "CLASS_ASSIGNMENT": "inactive"}

Inquiry: Recorded test outcome, item COc1ccccc1C(=O)NC(CCSC)C(=O)N1CCN(C(C)=O)CC1 (configuration not stated)
Reply text: inactive

Inquiry: Recorded test outcome, item CCn1cc(-c2cc(C(=O)O)on2)c(C)n1
Reply text: inactive

Inquiry: Recorded test outcome, item O=C(Nc1ncccc1O)c1ccc(S(=O)(=O)N2CCCC2)cc1
Reply text: inactive

Inquiry: Recorded test outcome, item CC(C)N(Cc1nnc(-c2ccc(Cl)cc2)o1)C(=O)C1=COCCO1
Reply text: inactive

###

- TEST: inhibitors of CD40-induced NF-kB signaling, primary screen, BL2 cells, luciferase reporter, single point (AID 1053188);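 note: 0% = neutral control wells and 100% = IKK inhibitor VII at 50 µM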
- CONDITION_SET: CD40L-induced, 4 h; at 10 µM unless noted
The whole screen tested about 83,000 compounds, of which about 780 (0.94%) were called active.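 Rule for the calls: active = mean inhibition of at least 50% with a set share of replicates also reaching that level; inconclusive = no clear call, values can overlap the other calls; inactive = the rest.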 The sample as a whole holds a higher share of actives than the screen did.
One label from this list, please: active, inactive

Some entries whose results are on file:
{"MOLECULE": "CC(=O)Oc1ccc(-c2cccc(C(=O)N3CCCCC3)c2)cc1", "CLASS_ASSIGNMENT": "inactive"}
{"MOLECULE": "CSCCC(NC(=O)c1ccco1)C(=O)NCCc1ccc(F)cc1 (centres undefined)", "CLASS_ASSIGNMENT": "inactive"}
{"MOLECULE": "O=C(COC(=O)c1ccccn1)NNC(=O)c1ccc([N+](=O)[O-])cc1", "CLASS_ASSIGNMENT": "inactive"}
{"MOLECULE": "O=C(Nc1cccc(-c2cscn2)c1)C1CCN(Cc2ccsc2)CC1", "CLASS_ASSIGNMENT": "inactive"}
{"MOLECULE": "CSc1ncccc1C(=O)NC1CCCCCC1", "CLASS_ASSIGNMENT": "inactive"}

Next molecule, please.
Inquiry: Recorded test outcome, item CC1(C(=O)O)CCCN(C(=O)/C=C/c2ccccc2)C1 (centres undefined)
Reply text: inactive

###

- TEST: inhibitors of CD40-induced NF-kB signaling, primary screen, BL2 cells, luciferase reporter, single point (AID 1053188);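 note: 0% = neutral control wells and 100% = IKK inhibitor VII at 50 µM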
- CONDITION_SET: CD40L-induced, 4 h; at 10 µM unless noted
The whole screen tested about 83,000 compounds, of which about 780 (0.94%) were called active.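 Rule for the calls: active = mean inhibition of at least 50% with a set share of replicates also reaching that level; inconclusive = no clear call, values can overlap the other calls; inactive = the rest.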 The entries come from a sample that favours actives as a whole.
One label from this list, please: active, inactive

Some entries whose results are on file:
{"COMPOUND": "Cc1ccc(/C=C/C(=O)OCC(=O)NCc2ccc(Cl)cc2)o1", "CLASS_ASSIGNMENT": "active"}
{"COMPOUND": "COc1ccc(-c2ccc(C3[C@@H]4CN(S(=O)(=O)c5cn(C)cn5)C[C@H]3N4)cc2)cc1 (stereo partly specified)", "CLASS_ASSIGNMENT": "inactive"}
{"COMPOUND": "COc1ccccc1C(=O)NC(=O)COC(=O)C1CC1", "CLASS_ASSIGNMENT": "inactive"}
{"COMPOUND": "Cc1ccsc1C(=O)OCC(=O)c1cc(C)n(CC2CCCO2)c1C (stereo unspecified)", "CLASS_ASSIGNMENT": "active"}
{"COMPOUND": "CC(C)(Oc1ccc(Cl)cc1)C(=O)OCC(=O)NCCc1ccc(S(N)(=O)=O)cc1", "CLASS_ASSIGNMENT": "inactive"}
{"COMPOUND": "O=C(NCCc1ccc(F)cc1)c1ccc(S(=O)(=O)N2CCCCC2)cc1", "CLASS_ASSIGNMENT": "inactive"}
{"COMPOUND": "Cc1ccsc1C(=O)OCC(=O)c1cc2ccccc2o1", "CLASS_ASSIGNMENT": "inactive"}
{"COMPOUND": "COC(=O)C1=C(N)Oc2c(oc(CO)cc2=O)C1c1c(F)cccc1Cl (stereo unspecified)", "CLASS_ASSIGNMENT": "inactive"}

Inquiry: Recorded test outcome, item O=C(NC1CC1)c1ccc(-c2ccccc2)cc1
Reply text: inactive

Inquiry: Recorded test outcome, item Cc1cc(C(=O)COC(=O)CNC(=O)c2ccc(F)cc2)c(C)n1Cc1ccco1
Reply text: inactive

Inquiry: Recorded test outcome, item Cc1cccc(-n2c(=O)c3c(C)c(C)sc3n(CC(N)=O)c2=O)c1
Reply text: inactive

###

- TEST: inhibitors of CD40-induced NF-kB signaling, primary screen, BL2 cells, luciferase reporter, single point (AID 1053188);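 note: 0% = neutral control wells and 100% = IKK inhibitor VII at 50 µM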
- CONDITION_SET: CD40L-induced, 4 h, active compounds read high; at 10 µM unless noted
The campaign covered roughly 83,000 compounds. About 780 (0.94%) were called active. Only a selection was taken, and actives are over-represented in it overall.
inhibition values, listed per item

Please review the following examples before continuing.
{"COMPOUND": "N#C[C@@H]1[C@H](c2ccccc2)[C@H](CO)N1C(=O)CN1CCOCC1", "RESULT": "-6.4% [at 25 µM] (inactive)"}
{"COMPOUND": "CC1Cc2ccccc2N1S(=O)(=O)c1cccc(C(=O)NCC(c2ccco2)N2CCCC2)c1 (centres undefined)", "RESULT": "8.41% (inactive)"}
{"COMPOUND": "COCCCN(C(=O)CSCc1ccc(C)cc1)c1c(N)n(Cc2ccccc2)c(=O)[nH]c1=O", "RESULT": "10% (inactive)"}
{"COMPOUND": "CCC(=O)N1CC2(CCN(Cc3ccc(Cl)cc3)CC2)c2c(n(C)c3cc(OC)ccc23)[C@@H]1CO", "RESULT": "4.53% [at 25 µM] (inactive)"}
{"COMPOUND": "COc1ccc(C(=O)Nc2ccccc2C(=O)N/N=C/c2ccccc2OC)cc1", "RESULT": "53.7% (active)"}

Let us examine a further case.
Kindly note the recorded inhibition for COc1ccc(S(=O)(=O)NCCc2c[nH]c3ccccc23)cc1OC , which is 6.21% (inactive)

###

- TEST: inhibitors of CD40-induced NF-kB signaling, primary screen, BL2 cells, luciferase reporter, single point (AID 1053188);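 note: 0% = neutral control wells and 100% = IKK inhibitor VII at 50 µM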
- CONDITION_SET: CD40L-induced, 4 h; at 10 µM unless noted
The campaign covered roughly 83,000 compounds. About 780 (0.94%) were called active.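 The calls were made as follows: active = mean inhibition of at least 50% with a set share of replicates also reaching that level; inconclusive = no clear call, values can overlap the other calls; inactive = the rest.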 The sample as a whole holds a higher share of actives than the screen did.
One label from this list, please: label 1 for active, label 0 for inactive

Some entries whose results are on file:
{"COMPOUND": "C=C(C)C[C@H]1CCn2cc(nn2)COCCNC1=O", "CLASS_ASSIGNMENT": "label 0"}
{"COMPOUND": "COc1ccc(CNC(=O)CN2CCC(n3nnc4cc(F)ccc43)CC2)cc1", "CLASS_ASSIGNMENT": "label 0"}

Next compound, please.
Inquiry: Recorded test outcome, item N#C[C@@H]1N[C@H](CO)[C@@H]1c1ccc(/C=C/c2ccccc2)cc1
Reply text: label 0

###

inhibition values, listed per item
- TEST: inhibitors of CD40-induced NF-kB signaling, primary screen, BL2 cells, luciferase reporter, single point (AID 1053188);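 note: 0% = neutral control wells and 100% = IKK inhibitor VII at 50 µM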
- CONDITION_SET: CD40L-induced, 4 h, active compounds read high; at 10 µM unless noted
Out of some 83,000 compounds screened, about 780 (0.94%) were called active. This excerpt belongs to a sample that is enriched for actives.

Please review the following examples before continuing.
{"MOLECULE": "O=C(NCC1CCCO1)c1ccc(S(=O)(=O)Nc2ccc(F)cc2)cc1 (stereo not drawn)", "inhibition": "7.17% (inactive)"}
{"MOLECULE": "Cc1cccn2c(CNCC(C)Oc3cccnc3)c(C(=O)N3CCOCC3)nc12 (stereo not drawn)", "inhibition": "9.25% (inactive)"}
{"MOLECULE": "O=C1C(Cl)=C(Oc2ccccc2)C(=O)c2ccccc21", "inhibition": "100% (active)"}

Kindly note the recorded inhibition for CN(Cc1cccc2ncccc12)C(=O)CC1C(=O)NCCN1Cc1ccc(F)cc1 (stereo not drawn) , which is -2.82% (inactive)

Kindly note the recorded inhibition for CC(C)C[C@H](NC(=O)Nc1cccc(C(F)(F)F)c1)C(=O)O , which is 17.4% (inactive)

Kindly note the recorded inhibition for NC(c1ccccc1)c1csc(NC(=O)Nc2cccc(C(F)(F)F)c2)n1 (stereo not drawn) , which is 75% (active)

Kindly note the recorded inhibition for CN1CCC(N(C)C(=O)c2ccc(Cl)c(S(=O)(=O)Nc3ccc(Cl)cc3)c2)CC1 , which is -2.41% (inactive)

Kindly note the recorded inhibition for CC1CCCC(NC(=O)c2cc(S(=O)(=O)N3CCCCC3)ccc2Cl)C1C (stereo not drawn) , which is 6.89% (inactive)

Kindly note the recorded inhibition for O=C(OCC(=O)N1CCCC1=O)c1cc(S(=O)(=O)N2CCOCC2)ccc1Cl , which is 17.8% (inactive)

Kindly note the recorded inhibition for Cc1ccc2c(c1)c1ncn(CCC3=CCCCC3)c(=O)c1n2C , which is -13.8% (inactive)

Kindly note the recorded inhibition for CN(C)CCCN(C(=O)c1ccc(S(=O)(=O)N2CCCCCC2)cc1)c1nc2cc3c(cc2s1)OCCO3 , which is -0.778% (inactive)

Kindly note the recorded inhibition for COc1ccc(C(=O)COC(=O)c2nn(C)c(=O)c3ccccc23)c(OC)c1 , which is 4.47% (inactive)

Kindly note the recorded inhibition for Cc1ccc(S(=O)(=O)c2ccc(Oc3ccccc3)cc2)cc1 , which is 1.57% (inactive)
